# System: NCI-H460
# assay overview: Antiproliferative activity against human NCI-H460 cells assessed as cell growth inhibition incubated for 72 hrs by MTT assay
# Format: functional
Kindly state GI50 for each of the entries shown.
Answers are plain numbers, in µM.

Example entries begin here.
{"columns": ["compound", "target entity", "GI50 [µM]"],
 "data": [
  ["COc1cccc(/C=C/c2nc3ccccc3c(=O)[nH]2)c1", "NCI-H460", 2.2],
  ["O=C1NC(c2ccc(Br)cc2)Nc2ccccc21 (stereo not drawn)", "NCI-H460", 3.2],
  ["O=C1NC(c2cc3ccccc3o2)Nc2ccccc21 (stereo not drawn)", "NCI-H460", 3.1],
  ["O=c1[nH]c(/C=C/c2cccc(O)c2)nc2ccccc12", "NCI-H460", 2.6],
  ["O=C1NC(c2ccc(-c3ccccc3)cc2)Nc2ccccc21 (stereo not drawn)", "NCI-H460", 2.8],
  ["O=C1NC(C2CC=CCC2)Nc2ccccc21 (stereo not drawn)", "NCI-H460", 11],
  ["COc1ccc(/C=C/c2nc3ccccc3c(=O)[nH]2)cc1", "NCI-H460", 11],
  ["CCCCCCCCC1NC(=O)c2ccccc2N1 (stereo not drawn)", "NCI-H460", 14],
  ["O=C1NC(CCc2ccccc2)Nc2ccccc21 (stereo not drawn)", "NCI-H460", 12],
  ["O=C1NC(c2ccc3ccccc3c2)Nc2ccccc21 (stereo not drawn)", "NCI-H460", 2.9]
]}

For each of the compounds below, state GI50.
1. O=C1NC(c2cccc3ccccc23)Nc2ccccc21 (stereo not drawn)
2. O=C1NC(c2ccc([N+](=O)[O-])cc2)Nc2ccccc21 (stereo not drawn)
3. O=C1NC(c2cccc(O)c2)Nc2ccccc21 (stereo not drawn)

Result:
1: 0.037; 2: 14; 3: 14

For each of the compounds below, state GI50.
1. Cc1ccc2[nH]cc(-c3nc4ccccc4c(=O)[nH]3)c2c1
2. COC(=O)c1cccc(/C=C/c2nc3ccccc3c(=O)[nH]2)c1
3. Cc1ccc(/C=C/c2nc(O)c3ccccc3n2)cc1
4. O=c1[nH]c(-c2ccc(Br)cc2)nc2ccccc12

Result:
1. 3.7
2. 7.2
3. 9.4
4. 5.7

====

Kindly state inhibition at 25 µM for each of the entries shown.
# Test system: U-87 MG
# assay overview: Antiproliferative activity against human U87 cells assessed as cell growth inhibition at 25 uM incubated for 72 hrs by MTT assay relative to control
# Assay type: functional, U-87MG ATCC

Example entries begin here.
{"columns": ["compound", "target entity", "inhibition at 25 µM"],
 "data": [
  ["O=C1NC(c2ccc(Br)o2)Nc2ccccc21 (stereo unspecified)", "U-87 MG", "< 10%"],
  ["O=C1NC(/C=C/c2ccccc2[N+](=O)[O-])Nc2ccccc21 (stereo unspecified)", "U-87 MG", "24%"],
  ["O=C1NC(c2cc(O)c(O)c(O)c2)Nc2ccccc21 (stereo unspecified)", "U-87 MG", "29%"],
  ["O=c1[nH]c(-c2ccccc2Br)nc2ccccc12", "U-87 MG", "14%"],
  ["O=c1[nH]c(/C=C/c2ccccc2)nc2ccccc12", "U-87 MG", "> 100%"]
]}

The record that follows has no inhibition at 25 µM shown yet.
Task: Param item = COc1cccc(C2NC(=O)c3ccccc3N2)c1 (stereo unspecified) ; retrieve measured inhibition at 25 µM.
Result: 99%

====

# Test system: HT-29
# assay overview: Antiproliferative activity against human HT-29 cells assessed as cell growth inhibition incubated for 72 hrs by MTT assay
# Type: functional
Kindly state GI50 for each of the entries shown.
Numbers only, in nM.

{"columns": ["compound", "GI50 / nM"],
 "data": [
  ["O=C1NC(c2ccccc2Br)Nc2ccccc21 (stereo not given)", 2400]
]}

For each of the compounds below, state GI50.
1. O=C1NC(c2cccc(Br)c2)Nc2ccccc21 (stereo not given)
2. COc1cccc(C2NC(=O)c3ccccc3N2)c1 (stereo not given)
3. O=C1NC(c2ccc(Br)cc2)Nc2ccccc21 (stereo not given)
4. COc1cccc(/C=C/c2nc3ccccc3c(=O)[nH]2)c1

Result:
2600
1700
2900
900

====

# Tested on: U-87 MG
# assay overview: Antiproliferative activity against human U87 cells assessed as cell growth inhibition incubated for 72 hrs by MTT assay
# Format: functional, U-87MG ATCC
endpoint label: GI50 (µM)
Numbers only, in µM.

{"columns": ["compound", "GI50, µM"],
 "data": [
  ["Cc1ccc2[nH]cc(-c3nc4ccccc4c(=O)[nH]3)c2c1", 16],
  ["O=C1NC(c2cccc3ccccc23)Nc2ccccc21 (centres undefined)", 0.22],
  ["O=C1NC(c2cccs2)Nc2ccccc21 (centres undefined)", 23],
  ["O=C1NC(c2ccc(-c3ccccc3)cc2)Nc2ccccc21 (centres undefined)", 2.2],
  ["O=C1NC(C2CC=CCC2)Nc2ccccc21 (centres undefined)", 17],
  ["O=C1NC(/C(Br)=C/c2ccccc2)Nc2ccccc21 (centres undefined)", 5.7]
]}

The record that follows has no GI50 shown yet.
Task: Param item = Cc1ccc(C2NC(=O)c3ccccc3N2)cc1 (centres undefined) ; retrieve measured GI50.
Result: 2.6

====

# assay overview: Cytotoxicity against human MCF-10A cells assessed as cell growth inhibition at 25 uM incubated for 72 hrs by MTT assay relative to control
# Type: toxicity, cell-based
Classification field: enter TRUE for inhibition at 72 h, 25 µM values not below 90%, FALSE for values below it.

Known results for compounds:
{"columns": ["compound", "label value"],
 "data": [
  ["O=C1NC(c2cccnc2)Nc2ccccc21 (configuration not stated)", "FALSE"],
  ["COc1ccccc1/C=C/c1nc2ccccc2c(=O)[nH]1", "TRUE"],
  ["O=c1[nH]c(/C=C/c2cccc(O)c2)nc2ccccc12", "TRUE"],
  ["O=C1NC(/C=C/c2ccco2)Nc2ccccc21 (configuration not stated)", "TRUE"],
  ["O=C1NC(c2ccc3nsnc3c2)Nc2ccccc21 (configuration not stated)", "FALSE"]
]}

Now take the following compound into account.
Task: Decide: is the reported value of inhibition at 72 h, 25 µM for COC(=O)c1cccc(/C=C/c2nc3ccccc3c(=O)[nH]2)c1 equal to or greater than 90%?
Result: FALSE

====

Kindly state inhibition at 25 µM for each of the entries shown.
# Tested on: U-87 MG
# assay overview: Antiproliferative activity against human U87 cells assessed as cell growth inhibition at 25 uM incubated for 72 hrs by MTT assay relative to control
# Type: functional, U-87MG ATCC

Example entries begin here.
{"columns": ["molecule", "inhibition at 25 µM"],
 "data": [
  ["O=C1NC(c2cccc(C(F)(F)F)c2)Nc2ccccc21 (stereo not drawn)", "> 100%"],
  ["O=C1NC(CCc2ccccc2)Nc2ccccc21 (stereo not drawn)", "< 10%"]
]}

Task: Query for U-87 MG: what inhibition at 25 µM does the record show for N#Cc1ccc(C2NC(=O)c3ccccc3N2)cc1 (stereo not drawn) ?
Result: < 10%

====

# Test system: U-87 MG
# assay overview: Antiproliferative activity against human U87 cells assessed as cell growth inhibition at 25 uM incubated for 72 hrs by MTT assay relative to control
# Format: functional, U-87MG ATCC
endpoint label: inhibition at 25 µM (%)
One number for each entry, in %.

{"columns": ["compound", "unit of measure", "experimental value"],
 "data": [
  ["O=c1[nH]c(/C=C/c2cccc(O)c2)nc2ccccc12", "%", 73],
  ["O=c1[nH]c(/C=C/c2ccc(Br)cc2)nc2ccccc12", "%", 83],
  ["O=C1NC(c2cccc3ccccc23)Nc2ccccc21 (stereo not given)", "%", 93],
  ["O=C1NC(C2CC=CCC2)Nc2ccccc21 (stereo not given)", "%", 67],
  ["O=C1NC(c2c[nH]c3ccccc23)Nc2ccccc21 (stereo not given)", "%", 70]
]}

For each of the compounds below, state inhibition at 25 µM.
1. O=C(O)c1cccc(C2NC(=O)c3ccccc3N2)c1 (stereo not given)
2. COc1cc2c(c(OC)c1OC)-c1ccc(OC)c(=O)cc1[C@@H](NC(C)=O)CC2
3. COc1ccc(/C=C/c2nc3ccccc3c(=O)[nH]2)cc1
4. O=c1[nH]c(-c2ccc(Br)cc2)nc2ccccc12
5. O=C1NC(c2cccc(Br)c2)Nc2ccccc21 (stereo not given)

Result:
10
21
24
91
98

For each of the compounds below, state inhibition at 25 µM.
1. CCCC/C=C/c1nc2ccccc2c(=O)[nH]1
2. O=C1NC(c2ccc([N+](=O)[O-])cc2)Nc2ccccc21 (stereo not given)

Result:
1: 25; 2: 22

====

# System: A2780
# assay overview: Antiproliferative activity against human A2780 cells assessed as cell growth inhibition at 25 uM incubated for 72 hrs by MTT assay relative to control
# Format: functional
endpoint label: inhibition at 25 µM

Example entries begin here.
{"columns": ["molecule", "endpoint label", "experimental value"],
 "data": [
  ["O=C1NC(c2ccc(-c3ccccc3)cc2)Nc2ccccc21 (configuration not stated)", "inhibition at 25 µM", "> 100%"],
  ["Oc1nc(-c2ccncc2)nc2ccccc12", "inhibition at 25 µM", "< 10%"],
  ["O=C1NC(c2cc3ccccc3o2)Nc2ccccc21 (configuration not stated)", "inhibition at 25 µM", "≥ 57%"],
  ["COc1cccc(/C=C/c2nc3ccccc3c(=O)[nH]2)c1", "inhibition at 25 µM", "> 100%"],
  ["O=C1NC(/C=C/c2ccco2)Nc2ccccc21 (configuration not stated)", "inhibition at 25 µM", "> 100%"]
]}

For each of the molecules below, state inhibition at 25 µM.
1. O=C1NC(c2ccc3ccccc3c2)Nc2ccccc21 (configuration not stated)
2. O=C(O)c1ccc(C2NC(=O)c3ccccc3N2)cc1 (configuration not stated)

Result:
1. > 100%
2. < 10%
